Test system: P12-Ichikawa
TEST PROTOCOL: cell viability relative to DMSO control; higher = less cytotoxic
ASSAY SETUP: RPMI 5 mM glucose + 10% FBS; 48 h; 0.0211 µM
Documented cell viability across a set of molecules

# MOLECULE, cell viability / %
rows = [
    ("COC(=O)\\C1=C\\CCN(C)C1", 104),
    ("O=C(Nc1cccnn1)N1CCC(=Cc2cccc(Oc3ccc(C(F)(F)F)cn3)c2)CC1", 12.6),
    ("Cn1cc(C[C@@H](N)C(=O)O)c2ccccc21", 101),
    ("CC(C)OC1=CC=C2C(=C1)O\\C=C(/C2=O)C3=CC=CC=C3", 128),
    ("COc1ccc2cc1Oc1ccc(cc1)C[C@H]1c3cc(c(OC)cc3CCN1C)Oc1c(OC)c(OC)cc3c1[C@H](C2)N(C)CC3", 117),
    ("CCN1CCN(C(=O)Cc2ccc(Nc3ncc(F)c(Nc4ccc(C(=O)Nc5ccccc5Cl)cc4)n3)cc2)CC1", 111),
    ("Cc1nc(Nc2n[nH]c3c2CN(C(=O)N[C@H](CN(C)C)c2ccccc2)C3(C)C)c2sccc2n1", 60),
    ("OC(CN1CCN(c2cccc(Cl)c2)CC1)C(c1ccccc1)c1ccccc1 (stereo not drawn)", 115),
]
